target_under_test: PRAK (Homo sapiens)
Construct: purchased Eurofins Pharma Discovery Services (KinaseProfiler; Cerep BioPrint panel)
Sequence (Q8IW41 1-473): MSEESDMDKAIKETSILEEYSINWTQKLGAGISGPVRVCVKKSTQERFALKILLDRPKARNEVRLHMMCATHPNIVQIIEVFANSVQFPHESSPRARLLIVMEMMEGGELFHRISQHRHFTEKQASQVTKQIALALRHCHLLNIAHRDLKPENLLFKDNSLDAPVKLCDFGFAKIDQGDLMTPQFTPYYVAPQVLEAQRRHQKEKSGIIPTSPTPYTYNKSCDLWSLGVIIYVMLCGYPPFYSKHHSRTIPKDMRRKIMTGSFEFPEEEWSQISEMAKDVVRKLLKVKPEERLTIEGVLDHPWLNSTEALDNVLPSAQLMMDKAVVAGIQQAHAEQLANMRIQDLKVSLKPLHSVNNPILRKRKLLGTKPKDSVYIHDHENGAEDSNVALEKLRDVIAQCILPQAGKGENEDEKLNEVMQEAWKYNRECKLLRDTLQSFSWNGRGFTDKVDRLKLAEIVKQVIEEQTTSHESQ
method_description: kinase selectivity panel
Type: biochemical
settings: read-out: percentage of control activity (POC), PRAK
Each entry below carries its reported remaining activity at 10 µM.
Give just the number in %; leave the unit off.

Would you please look over these solved cases?
> print(dat)
                                   molecule  readout.value
1  CC(C)(C)N1CCC(c2cc(-c3ccc(F)cc3Cl)c3cc[n+]([O-])c(-c4c(Cl)cccc4Cl)c3n2)CC1            107
2  Cn1cc(-c2cccc(-c3nc(C(=O)NC4C5CC6CC4CC(O)(C6)C5)c(N)nc3N)c2)cn1 (centres unmarked)             83
3  CS(=O)(=O)N1CCN(c2ccc(Nc3ncc(C(N)=O)c(NC4CC4)n3)cc2)CC1             85
4  COc1c(NC(=O)c2ccc(C)c(-c3nnc4c(NCC(C)(C)C)nccn34)c2)cc(C(C)(C)C)cc1NS(C)(=O)=O [compound 7, reference compound]             56

Now look at this entry.
Consider Cc1ccc(C(=O)NCC2CC2)cc1-c1ccc2c(c1)NC(=O)C21CCCC1 . Its measured remaining activity at 10 µM is 65

----------
target_under_test: Rsk3 (Homo sapiens, UniProt Q15349)
Construct: purchased Eurofins Pharma Discovery Services (KinaseProfiler; Cerep BioPrint panel)
Sequence (Q15349 whole entry): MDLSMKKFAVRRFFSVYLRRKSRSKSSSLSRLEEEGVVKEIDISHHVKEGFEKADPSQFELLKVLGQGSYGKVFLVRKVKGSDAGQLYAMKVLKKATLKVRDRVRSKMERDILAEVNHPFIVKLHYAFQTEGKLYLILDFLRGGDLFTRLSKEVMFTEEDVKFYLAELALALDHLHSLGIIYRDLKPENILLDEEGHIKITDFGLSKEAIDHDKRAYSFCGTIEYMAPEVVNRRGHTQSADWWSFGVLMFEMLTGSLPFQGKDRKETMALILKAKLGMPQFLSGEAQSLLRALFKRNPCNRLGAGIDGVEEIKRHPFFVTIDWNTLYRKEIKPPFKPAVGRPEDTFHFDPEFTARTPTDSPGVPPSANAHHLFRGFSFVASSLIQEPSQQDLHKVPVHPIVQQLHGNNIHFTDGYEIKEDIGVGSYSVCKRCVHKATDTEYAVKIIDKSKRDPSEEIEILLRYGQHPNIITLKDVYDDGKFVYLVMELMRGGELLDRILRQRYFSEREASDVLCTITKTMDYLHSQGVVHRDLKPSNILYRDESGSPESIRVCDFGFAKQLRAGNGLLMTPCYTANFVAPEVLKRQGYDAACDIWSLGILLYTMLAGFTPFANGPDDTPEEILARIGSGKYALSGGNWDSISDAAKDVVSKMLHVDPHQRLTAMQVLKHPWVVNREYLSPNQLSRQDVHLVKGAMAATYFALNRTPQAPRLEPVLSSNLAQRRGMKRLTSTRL
method_description: kinase selectivity panel
Assay type: biochemical
settings: read-out: percentage of control activity (POC), Rsk3
Description: Kinase selectivity was evaluated at Eurofins Pharma Discovery Services using a selection of 125 representative kinases tested at a concentration of 10 μM in duplicate (S3 Table). IC50 values for selected activities were further characterized at 9 duplicate concentrations. DNA-PK activity was determined at the SelectScreen® Biochemical kinase Profiling Service of Thermo Fisher Scientific.
Each entry below carries its reported remaining activity at 10 µM.
Give just the number in %; leave the unit off.

Would you please look over these solved cases?
> print(dat)
                                   compound                 readout.kind  readout.value
1  Cc1ccc(C(=O)NCC2CC2)cc1-c1ccc2c(c1)NC(=O)C21CCCC1 [compound 3]  remaining activity at 10 µM            102
2  CS(=O)(=O)N1CCN(c2ccc(Nc3ncc(C(N)=O)c(NC4CC4)n3)cc2)CC1 [compound 5]  remaining activity at 10 µM              0
3  COc1c(NC(=O)c2ccc(C)c(-c3nnc4c(NCC(C)(C)C)nccn34)c2)cc(C(C)(C)C)cc1NS(C)(=O)=O [compound 7, reference compound]  remaining activity at 10 µM            110
4  Cn1cc(-c2cccc(-c3nc(C(=O)NC4C5CC6CC4CC(O)(C6)C5)c(N)nc3N)c2)cn1 (centres unmarked) [compound 4]  remaining activity at 10 µM             75

Now look at this entry.
Consider CC(C)(C)N1CCC(c2cc(-c3ccc(F)cc3Cl)c3cc[n+]([O-])c(-c4c(Cl)cccc4Cl)c3n2)CC1 [compound 2] . Its measured remaining activity at 10 µM is 99
